Kindly state pIC50 for each of the entries shown.
pIC50: −log10 of the molar value.

**Query** For UniProtKB Q00534, provide pIC50 of CC(C)(C)OC(=O)Nc1cc2cnc(Nc3ccc(-c4csc5c(=O)cc(N6CCOCC6)oc45)cc3)nc2n1C1CCCC1 please.
Sequence (Q00534 whole entry): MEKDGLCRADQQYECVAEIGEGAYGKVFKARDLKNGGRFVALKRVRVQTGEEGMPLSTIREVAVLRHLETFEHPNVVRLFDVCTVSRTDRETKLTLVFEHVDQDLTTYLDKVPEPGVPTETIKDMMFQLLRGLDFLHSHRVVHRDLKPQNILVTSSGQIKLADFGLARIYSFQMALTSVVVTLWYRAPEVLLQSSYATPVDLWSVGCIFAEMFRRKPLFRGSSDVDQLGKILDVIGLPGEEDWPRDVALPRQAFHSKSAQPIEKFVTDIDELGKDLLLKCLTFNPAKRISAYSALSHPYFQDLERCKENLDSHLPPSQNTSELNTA
Sequence (P24385 whole entry partner): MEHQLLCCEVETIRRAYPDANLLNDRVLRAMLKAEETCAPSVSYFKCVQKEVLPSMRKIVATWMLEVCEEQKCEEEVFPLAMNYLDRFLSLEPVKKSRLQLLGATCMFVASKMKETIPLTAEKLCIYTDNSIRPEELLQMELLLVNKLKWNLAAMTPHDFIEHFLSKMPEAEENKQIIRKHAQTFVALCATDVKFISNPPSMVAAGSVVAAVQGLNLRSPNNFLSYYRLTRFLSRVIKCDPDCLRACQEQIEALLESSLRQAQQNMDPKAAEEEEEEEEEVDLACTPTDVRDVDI
**Result** > 6.30

**Query** Give recorded pIC50 with UniProtKB Q00534 for the following compound: CN(C)C(=O)c1cc2cnc(Nc3ccc(-c4csc5c(=O)cc(N6CCOCC6)oc45)nc3)nc2n1C1CCCC1
**Result** > 6.30

**Query** Missing value: pIC50, UniProtKB Q00534, entry Cc1nn(-c2ccnc(Nc3ccc(-c4csc5c(=O)cc(N6CCNCC6)oc45)cc3)n2)cc1CN1CCC1 . Fill in?
**Result** > 6.30

**Query** Form field: pIC50 recorded for CNC(=O)c1cc2cnc(Nc3ccc(-c4csc5c(=O)cc(N6CCOCC6)oc45)cc3)nc2n1C1CCCC1 with UniProtKB Q00534 (enter value)
**Result** > 6.30

**Query** Missing value: pIC50, UniProtKB Q00534, entry CN(C)C(=O)c1cc2cnc(Nc3ccc(-c4csc5c(=O)cc(N6CCOCC6)oc45)c(C(=O)NCCN)c3)nc2n1C1CCCC1 . Fill in?
**Result** > 6.30

**Query** Observed pIC50 on UniProtKB Q00534 for Cc1nn(-c2ccnc(Nc3ccc(-c4csc5c(=O)cc(N6CCOCC6)oc45)cc3)n2)cc1CN(C)CCO , please.
**Result** 5.00 to 6.00

**Query** Give pIC50 (UniProtKB Q00534) of the following compound: CC(C)n1c(C(=O)N(C)C)cc2cnc(Nc3ccc(-c4csc5c(=O)cc(N6CCOCC6)oc45)cc3)nc21
**Result** > 6.30

---

ASSAYED_TARGET: PI3K gamma (Homo sapiens, UniProt P48736)
Sequence (P48736 whole entry): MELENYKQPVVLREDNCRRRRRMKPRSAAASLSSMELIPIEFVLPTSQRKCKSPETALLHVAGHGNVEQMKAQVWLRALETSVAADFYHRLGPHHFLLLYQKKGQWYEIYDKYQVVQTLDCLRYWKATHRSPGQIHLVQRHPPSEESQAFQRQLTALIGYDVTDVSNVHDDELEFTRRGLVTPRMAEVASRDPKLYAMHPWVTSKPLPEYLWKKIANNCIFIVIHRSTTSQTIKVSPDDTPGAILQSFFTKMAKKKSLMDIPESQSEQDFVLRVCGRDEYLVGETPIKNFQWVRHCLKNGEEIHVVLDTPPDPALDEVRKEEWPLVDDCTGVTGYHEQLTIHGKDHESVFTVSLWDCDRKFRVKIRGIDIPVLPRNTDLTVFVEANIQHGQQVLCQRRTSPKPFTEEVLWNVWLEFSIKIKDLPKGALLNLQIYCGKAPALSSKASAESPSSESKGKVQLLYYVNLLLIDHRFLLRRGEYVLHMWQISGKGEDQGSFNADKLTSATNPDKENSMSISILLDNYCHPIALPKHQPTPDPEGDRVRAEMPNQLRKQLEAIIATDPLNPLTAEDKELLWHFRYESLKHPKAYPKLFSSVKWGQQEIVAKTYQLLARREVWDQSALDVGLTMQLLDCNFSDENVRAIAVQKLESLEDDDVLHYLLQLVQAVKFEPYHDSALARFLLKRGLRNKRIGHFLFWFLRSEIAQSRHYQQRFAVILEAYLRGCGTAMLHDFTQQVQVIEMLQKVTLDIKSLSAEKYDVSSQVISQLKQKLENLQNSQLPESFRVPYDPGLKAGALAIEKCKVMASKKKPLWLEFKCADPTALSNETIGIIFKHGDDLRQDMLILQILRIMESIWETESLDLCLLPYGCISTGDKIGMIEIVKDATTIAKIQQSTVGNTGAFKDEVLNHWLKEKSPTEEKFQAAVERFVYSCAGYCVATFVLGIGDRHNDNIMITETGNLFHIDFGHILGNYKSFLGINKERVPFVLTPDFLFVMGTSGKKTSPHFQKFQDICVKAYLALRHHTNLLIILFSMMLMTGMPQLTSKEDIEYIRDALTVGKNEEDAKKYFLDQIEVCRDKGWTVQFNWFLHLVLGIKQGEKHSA
METHOD_SUMMARY: PI3K gamma in vitro inhibition
Assay type: biochemical
PARTICULARS: read-out: IC50 inhibition PI3K gamma
Description: The kinase or bromodomain inhibitory activity of a compound of the invention can be determined by routine methods known to the skilled artisan without undue experimentation, or by procuring relevant analysis by a commercial vendor offering such services. […] Alternatively, inhibitor binding may be determined by running a competition experiment where a provided compound is incubated with a bromodomain-containing protein, such as a BET protein bound to known ligands, labeled or unlabeled. […]
Kindly supply the reported IC50 values for the records listed here.

**Query** For the compound shown here, CCCCC/C=C/C(=O)Nc1cccc(-c2csc3c(=O)cc(N4CCOCC4)oc23)c1 , give the reported IC50.
**Result** 10 to 45 µM

**Query** # query: IC50 of entry CN(C)C(=O)c1cc2cnc(Nc3ccc(-c4csc5c(=O)cc(N6CCOCC6)oc45)c(C(=O)NCCN)c3)nc2n1C1CCCC1
**Result** 10 to 45 µM

**Query** Bench note: what IC50 did C=CC(=O)N1CCOc2ccc(-c3csc4c(=O)cc(N5CCNCC5)oc34)cc21 show?
**Result** > 45 µM

**Query** What does the record list as IC50 for CN(C)C(=O)c1cc2cnc(Nc3ccc(-c4csc5c(=O)cc(N6CCOCC6)oc45)cn3)nc2n1C1CCCC1 ?
**Result** 0.5 to 1 µM

**Query** Returns the measured IC50 for the input compound. Input: C/C=C(\C)C(=O)N1CCOc2ccc(-c3csc4c(=O)cc(N5CCOCC5)oc34)cc21
**Result** 1 to 10 µM

**Query** // lookup IC50 for CN(C)C(=O)c1cc2cnc(Nc3cncc(-c4csc5c(=O)cc(N6CCOCC6)oc45)c3)nc2n1C1CCCC1
**Result** 1 to 10 µM

**Query** Can you share its IC50? I mean this compound: CN(C)C(=O)c1cc2cnc(Nc3ccc(-c4csc5c(=O)cc(N6CCNCC6)oc45)cc3)nc2n1C1CCCC1
**Result** 10 to 45 µM

**Query** Query (compound): CN(C)C(=O)c1cc2cnc(N3CCOc4cc(-c5csc6c(=O)cc(N7CCOCC7)oc56)ccc43)nc2n1C1CCCC1 ; field requested: IC50
**Result** 1 to 10 µM

**Query** # query: IC50 of entry C=CC(=O)Nc1cccc(-c2csc3c(=O)cc(N4CCOCC4)oc23)c1
**Result** 1 to 10 µM

**Query** Fill in the blank: the reported IC50 of CN(C)C(=O)c1cc2cnc(Nc3ccc(-c4csc5c(=O)cc(N6CCN(C(=O)OC(C)(C)C)CC6)oc45)cc3)nc2n1C1CCCC1 is ____.
**Result** 1 to 10 µM

**Query** # input compound: Cc1nc2c(F)cc(-c3nc(Nc4ccc(-c5csc6c(=O)cc(N7CCOCC7)oc56)cc4)ncc3F)cc2n1C(C)C ; wanted: its IC50
**Result** > 45 µM

**Query** IC50 lookup needed for C=CS(=O)(=O)N(CCS(=O)(=O)N(c1cc(-c2csc3c(=O)cc(N4CCOCC4)oc23)ccc1OC)S(=O)(=O)C=C)c1cc(-c2csc3c(=O)cc(N4CCOCC4)oc23)ccc1OC , thanks.
**Result** 0.5 to 1 µM

**Query** I would be grateful if you could share the reported IC50 for C=CC(=O)N1CCOc2ccc(-c3csc4c(=O)cc(N5CCOCC5)oc34)cc21 .
**Result** < 0.5 µM

**Query** I have this compound here, Cc1nn(-c2ccnc(Nc3ccc(-c4csc5c(=O)cc(N6CCOCC6)oc45)cc3)n2)cc1CN1CCC1 , and I need its recorded IC50.
**Result** 1 to 10 µM

**Query** Could you tell me which IC50 is on file for COc1cc(C#Cc2csc3c(=O)cc(N4CCOCC4)oc23)cc(OC)c1 ?
**Result** 1 to 10 µM

**Query** Could you share which IC50 value was measured for O=C(NCc1cccnc1)c1cc(-c2csc3c(=O)cc(N4CCNCC4)oc23)cc2c1OCCO2 ?
**Result** 10 to 45 µM

**Query** Item under review: COC(=O)c1cc(-c2csc3c(=O)cc(N4CCOCC4)oc23)ccc1Nc1ncc2cc(C(=O)N(C)C)n(C3CCCC3)c2n1 . Reported IC50?
**Result** 1 to 10 µM

**Query** Reported IC50 for Cc1nn(-c2ccnc(Nc3ccc(-c4csc5c(=O)cc(N6CCOCC6)oc45)cc3)n2)cc1CN(C)C : what is it?
**Result** 10 to 45 µM

**Query** Consider the compound shown here: COC(=O)c1cc(-c2csc3c(=O)cc(N4CCN(C(=O)OC(C)(C)C)CC4)oc23)cc2c1OCCO2 What is its recorded IC50?
**Result** < 0.5 µM

**Query** Quick one: IC50 for C/C=C/C(=O)N1CCOc2ccc(-c3csc4c(=O)cc(N5CCOCC5)oc34)cc21 ?
**Result** 1 to 10 µM

**Query** Look up IC50 for this compound: C=CC(=O)Nc1ccc(-c2csc3c(=O)cc(N4CCOCC4)oc23)cc1
**Result** 0.5 to 1 µM

**Query** // query IC50 value for entry C=CC(=O)N1CCOc2ccc(-c3csc4c(=O)cc(N5CCN(C)CC5)oc34)cc21
**Result** > 45 µM

**Query** Name the recorded IC50 for CNC(=O)c1cc2cnc(Nc3ccc(-c4csc5c(=O)cc(N6CCOCC6)oc45)cc3)nc2n1C1CCCC1 .
**Result** 1 to 10 µM

**Query** Would you kindly share the measured IC50 for O=C(C1=CCCC1)N1CCOc2ccc(-c3csc4c(=O)cc(N5CCOCC5)oc34)cc21 ?
**Result** 1 to 10 µM

**Query** Find the recorded IC50 belonging to CN(C)C(=O)c1cc2cnc(Nc3ccc(-c4csc5c(=O)cc(N6CCOCC6)oc45)nc3)nc2n1C1CCCC1 and report it.
**Result** 10 to 45 µM

**Query** Consider the compound shown here: CN(C)C(=O)c1cc2cnc(Nc3cc(C(=O)O)cc(-c4csc5c(=O)cc(N6CCOCC6)oc45)c3)nc2n1C1CCCC1 What is its recorded IC50?
**Result** > 45 µM

**Query** Any idea what IC50 was measured for CN(C)C(=O)c1cc2cnc(Nc3csc4c(=O)cc(N5CCOCC5)oc34)nc2n1C1CCCC1 ?
**Result** > 45 µM

**Query** What IC50 value was documented for this compound, CC(C)(C)OC(=O)Nc1cc2cnc(Nc3ccc(-c4csc5c(=O)cc(N6CCOCC6)oc45)cc3)nc2n1C1CCCC1 ?
**Result** 1 to 10 µM

**Query** Can you look up the measured IC50 of CN(C)C(=O)c1cc2cnc(Nc3ccc(-c4csc5c(=O)cc(N6CCOCC6)oc45)c(C(=O)O)c3)nc2n1C1CCCC1 [Compound 14] for me?
**Result** < 0.5 µM
